system: SK-MEL-28 melanoma; experiment: NCI tumour cell line growth inhibition, 48 h
Where a SMILES comes first, the peptide text is derived from it. [ ]: non-standard residue; d: D form. The star is where a group is joined. ξ: configuration not given here. NMeF = CN[C@@H](Cc1ccccc1)C(=O)O; NMeV = CN[C@H](C(=O)O)C(C)C; ξNMeN = CNC(CC(N)=O)C(=O)O; NMeA = CN[C@@H](C)C(=O)O; ξNMeV = CNC(C(=O)O)C(C)C; Boc = CC(C)(C)OC(=O)*
measure name: GI50

{"columns": ["molecule", "assay system", "GI50"],
 "data": [
  ["S=C(S)N1CCCCC1", "SK-MEL-28 melanoma", "89 µM"],
  ["O=c1ccccc(-c2ccc(Br)cc2)c1O", "SK-MEL-28 melanoma", "0.489 µM"],
  ["COC(=O)[C@H](C)N(C)C(=O)C(CC(N)=O)N(C)C(=O)[C@H](Cc1ccccc1)N(C)C(=O)[C@@H]1CCCN1C(=O)[C@H](C(C)C)N(C)C(=O)C(C(C)C)N(C)C(=O)[C@@H](NC(=O)OC(C)(C)C)C(C)C (stereo partly specified) (Boc-V[ξNMeV][NMeV]P[NMeF][ξNMeN][NMeA]-OMe)", "SK-MEL-28 melanoma", "31.4 µM"],
  ["C=C1C(O)C2C(=C(CCC3CC3)C13CC3)C(=O)C(C)(C)C2O (stereo unspecified)", "SK-MEL-28 melanoma", "76.2 µM"],
  ["CC(C)N(C(C)C)[PH+]1O[PH+](N(C(C)C)C(C)C)O[PH+](N(C(C)C)C(C)C)O[PH+](N(C(C)C)C(C)C)O1.[C-]#[O+].[C-]#[O+].[C-]#[O+].[C-]#[O+].[C-]#[O+].[C-]#[O+].[C-]#[O+].[C-]#[O+].[Mo].[Mo] (stereo unspecified)", "SK-MEL-28 melanoma", "> 100 µM"],
  ["COc1ccc(C(=O)c2sc3nc4c(cc3c2N)CCCC4)cc1OC", "SK-MEL-28 melanoma", "2.95 µM"],
  ["CC(C)N(CCCNC(=O)Nc1ccc(C(C)(C)C)cc1)C[C@H]1O[C@@H](n2ccc3c(N)ncnc32)[C@H](O)[C@@H]1O", "SK-MEL-28 melanoma", "> 100 µM"],
  ["COc1ccc(/C=C2\\COc3ccc(O)c(O)c3C2=O)cc1", "SK-MEL-28 melanoma", "1.15 µM"]
]}

For the molecule `Nc1c(C(=O)c2cccc(OC[C@@H](O)CO)c2)cnn1-c1ccc(F)cc1` , what GI50 is on record?
> 25 µM

And then `Clc1ccc(Cn2c(CN3CCCC3)nc3ccccc32)cc1` , what is it?
24.6 µM

And then `Cc1cc(Cl)ccc1OCc1nn2c(CCCCc3nnc4sc(COc5ccc(Cl)cc5C)nn34)nnc2s1` , what is it?
52.7 µM

And then `Cc1ccc(C2=NN(c3ccc(S(C)(=O)=O)cc3)C(=O)CC2)cc1` , what is it?
2.58 µM

And then C#CC[C@@H]1C[C@]2(C)[C@H]3CC[C@@H]4[C@H]5C(C(=C)C)CC[C@]5(C(=O)NCCCCN)CC[C@@]4(C)[C@]3(C)CC[C@H]2C(C)(C)[C@H]1OC(C)=O (stereo partly specified) , what is it?
1.76 µM

And then O=C1C=CC2(O)OC/C(=C\c3ccccc3)C(O)=C2C1=O (stereo unspecified) , what is it?
2.59 µM

And then `COc1cc(/C=C2\C(=O)Nc3ccccc32)cc(OC)c1O` , what is it?
5.06 µM

And then O=c1ncc(I)cn1C1CC(O)C(CO)O1 (stereo unspecified) , what is it?
3150 µM

And then `NCCCCCn1c2c(c3ccccc3c1=O)C(=O)c1ccccc1-2` , what is it?
1.46 µM

And then Cc1ccc(C2=Nc3c(N)nc(N)nc3NC(c3cccc(Nc4ccnc5cc(C(F)(F)F)ccc45)c3)C2)cc1 (stereo unspecified) , what is it?
1.7 µM

And then `Nc1nc2cc(O)ccc2n2cc3c(F)cccc3c12` , what is it?
4.86 µM

And then `O=C(CN(/C=C/C(=O)C(F)(F)F)c1ccc(Cl)cc1)c1ccc(F)cc1` , what is it?
16.5 µM

And then `CC(C)Oc1ccc(-c2nn([C@@H](C)c3oc4ccc(F)cc4c(=O)c3-c3cccc(F)c3)c3ncnc(N)c23)cc1F` , what is it?
> 100 µM
